Measured Ki by item
Target: PKC Delta (Homo sapiens)
Sequence (Q05655 whole entry): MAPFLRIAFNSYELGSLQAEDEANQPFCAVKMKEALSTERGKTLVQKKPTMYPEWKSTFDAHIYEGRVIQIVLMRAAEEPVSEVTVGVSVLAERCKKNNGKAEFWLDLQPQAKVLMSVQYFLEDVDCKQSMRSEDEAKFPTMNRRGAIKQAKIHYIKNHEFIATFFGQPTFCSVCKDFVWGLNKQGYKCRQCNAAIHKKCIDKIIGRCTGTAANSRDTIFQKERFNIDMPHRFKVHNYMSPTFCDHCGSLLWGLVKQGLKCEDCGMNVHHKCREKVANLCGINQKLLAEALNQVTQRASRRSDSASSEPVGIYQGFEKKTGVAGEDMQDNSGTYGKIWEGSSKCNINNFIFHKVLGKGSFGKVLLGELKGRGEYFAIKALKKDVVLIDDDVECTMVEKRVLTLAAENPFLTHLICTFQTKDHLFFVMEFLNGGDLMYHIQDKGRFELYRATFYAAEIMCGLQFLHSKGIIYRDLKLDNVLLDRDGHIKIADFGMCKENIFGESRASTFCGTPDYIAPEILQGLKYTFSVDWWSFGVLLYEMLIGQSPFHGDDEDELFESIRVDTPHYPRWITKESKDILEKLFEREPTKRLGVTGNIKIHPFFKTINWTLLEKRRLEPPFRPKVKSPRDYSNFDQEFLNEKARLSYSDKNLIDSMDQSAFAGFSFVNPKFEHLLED
Assay: PKC delta coupled-enzyme kinase assay (NADH consumption)
Details: 240 μM ATP, 30° C.

Some solved cases for reference:
Give Ki (PKC Delta (Homo sapiens)) of the following compound: CN(CC#N)c1ccc(C(F)(F)F)c(-c2n[nH]c3ncccc23)n1 < 500 nM

Same for c1cc(NCC2CCCCN2)nc(-c2n[nH]c3ncccc23)c1 (stereo not drawn) < 2800 nM

Same for NC1CCC(CNc2cccc(-c3n[nH]c4ncccc34)n2)CC1 (stereo not drawn) < 500 nM

Same for NC1CCC(CNc2ccc(C(F)(F)F)c(-c3n[nH]c4ncccc34)n2)CC1 (stereo not drawn) < 500 nM

Same for CC(N)(CO)COc1ccc(C(F)(F)F)c(-c2n[nH]c3ncccc23)n1 (stereo not drawn) > 700 nM

Further cases:
Give Ki (PKC Delta (Homo sapiens)) of the following compound: CC(C)CC(O)CNc1ccc(C(F)(F)F)c(-c2n[nH]c3ncccc23)n1 (stereo not drawn) > 700 nM

Same for CC(C)CC1(CNc2ccc(C(F)(F)F)c(-c3n[nH]c4ncccc34)n2)CNC1 < 50 nM

Same for OC[C@H](Nc1ccc(C(F)(F)F)c(-c2n[nH]c3ncccc23)n1)c1ccccc1 < 500 nM

Same for FC(F)(F)c1ccc(NC2CN3CCC2CC3)nc1-c1n[nH]c2ncccc12 (stereo not drawn) > 700 nM

Same for FC(F)(F)c1ccc(N[C@@H]2CCc3ccccc32)nc1-c1n[nH]c2ncccc12 > 700 nM

Same for NC(=O)c1ccccc1Oc1ccc(C(F)(F)F)c(-c2n[nH]c3ncccc23)n1 > 700 nM

Same for FC(F)(F)c1ccc(Nc2ccc3nc[nH]c3c2)nc1-c1n[nH]c2ncccc12 > 700 nM

Same for c1cc(NC2CCNCC2)nc(-c2n[nH]c3ncccc23)c1 < 50 nM

Same for FC(F)(F)c1ccc(OCC2CCCNC2)nc1-c1n[nH]c2ncccc12 (stereo not drawn) > 700 nM

Same for FC(F)(F)c1ccc(NC2CNC2)nc1-c1n[nH]c2ncccc12 > 700 nM

Same for CCC(CN)(CNc1ccc(C(F)(F)F)c(-c2n[nH]c3ncccc23)n1)c1ccccc1 (stereo not drawn) < 500 nM

Same for NCc1ccc(Nc2ccc(C(F)(F)F)c(-c3n[nH]c4ncccc34)n2)cc1 > 700 nM

Same for OC1(CNc2ccc(C(F)(F)F)c(-c3n[nH]c4ncccc34)n2)CCCCC1 < 500 nM
